- Test system: 521955-158-R2-J5-PDC spheroids with stroma, growth inhibition;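 note: spheroids exposed to drugs for seven days before readout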
- EXPERIMENT DESCRIPTION: Anticancer human tumor 521955-158-R2-J5-PDC patient-derived pancreatic carcinoma cell line growth inhibition [TAK]
- ASSAY CONTEXT: curve of first compound; second compound 9.49 µM
Response field label: string, one of Criterion met (IC50 strictly below 20 nM) or Criterion not met.

Previously resolved entries follow.
COMPOUND	ASSAYED TARGET	ANSWER LABEL
CC(C)CC(NC(=O)C(Cc1ccccc1)NC(=O)c1cnccn1)B(O)O (stereo not given) + CC(C)NCC(C(=O)N1CCN(c2ncnc3c2C(C)CC3O)CC1)c1ccc(Cl)cc1	521955-158-R2-J5-PDC spheroids with stroma, growth inhibition	Criterion met
CC(C)n1nc(-c2ccc3oc(N)nc3c2)c2c(N)ncnc21 + CC(C)NCC(C(=O)N1CCN(c2ncnc3c2C(C)CC3O)CC1)c1ccc(Cl)cc1	521955-158-R2-J5-PDC spheroids with stroma, growth inhibition	Criterion met
Cc1nc(NC(=O)N2CCCC2C(N)=O)sc1-c1ccnc(C(C)(C)C(F)(F)F)c1 (stereo not given) + CC(C)NCC(C(=O)N1CCN(c2ncnc3c2C(C)CC3O)CC1)c1ccc(Cl)cc1	521955-158-R2-J5-PDC spheroids with stroma, growth inhibition	Criterion not met
CC(C)(C)c1nc(-c2cccc(NS(=O)(=O)c3c(F)cccc3F)c2F)c(-c2ccnc(N)n2)s1 + CC(C)NCC(C(=O)N1CCN(c2ncnc3c2C(C)CC3O)CC1)c1ccc(Cl)cc1	521955-158-R2-J5-PDC spheroids with stroma, growth inhibition	Criterion not met
CC(=O)Nc1cccc(-n2c(=O)n(C3CC3)c(=O)c3c(Nc4ccc(I)cc4F)n(C)c(=O)c(C)c32)c1 + CC(C)NCC(C(=O)N1CCN(c2ncnc3c2C(C)CC3O)CC1)c1ccc(Cl)cc1	521955-158-R2-J5-PDC spheroids with stroma, growth inhibition	Criterion met

Input line: # strict comparison: is reported IC50 < 20 nM? input = CCCS(=O)(=O)Nc1ccc(F)c(C(=O)c2c[nH]c3ncc(-c4ccc(Cl)cc4)cc23)c1F + CC(C)NCC(C(=O)N1CCN(c2ncnc3c2C(C)CC3O)CC1)c1ccc(Cl)cc1
Output line: Criterion not met

Input line: # strict comparison: is reported IC50 < 20 nM? input = CC(C)CC(NC(=O)CNC(=O)c1cc(Cl)ccc1Cl)B1OC(=O)CC(CC(=O)O)(C(=O)O)O1 (stereo not given) + CC(C)NCC(C(=O)N1CCN(c2ncnc3c2C(C)CC3O)CC1)c1ccc(Cl)cc1
Output line: Criterion not met

Input line: # strict comparison: is reported IC50 < 20 nM? input = COC1CC2CCC(C)C(O)(O2)C(=O)C(=O)N2CCCCC2C(=O)OC(C(C)CC2CCC(OCCO)C(OC)C2)CC(=O)C(C)C=C(C)C(O)C(OC)C(=O)C(C)CC(C)C=CC=CC=C1C (stereo not given) + CC(C)NCC(C(=O)N1CCN(c2ncnc3c2C(C)CC3O)CC1)c1ccc(Cl)cc1
Output line: Criterion not met

Input line: # strict comparison: is reported IC50 < 20 nM? input = COc1c(OCCCN2CCOCC2)ccc2c3n(c(=NC(=O)c4cnc(N)nc4)nc12)CCN3 + CC(C)NCC(C(=O)N1CCN(c2ncnc3c2C(C)CC3O)CC1)c1ccc(Cl)cc1
Output line: Criterion met
